Target: pooled human IgG (human IgG1,2,3 and 4)
property: Enzyme Activity Endpoint Assay: Fc (ng/µL)
Entry rule: numbers only, all in ng/µL.

Please review the entries below; each comes with its answer.
PRT-87 (protein) MANQEIRYSEVTPYHITSVWTKGVTPPEQFTQGEDVFHAPYIANQGWYDITKTFNGKDNLLCGAATAGNMLHWWFDQNKEEIERYLKKYPEKQKIMFGDQELLDVRKVINTKDSQTNSKLFEYFRDKAFPNLSARRLGVMPDLVLDMFINGYYLSVTKTQTTDVNRTYGNKDNRGGIFDAVFTRGDQSKLLTNRHDFKEKNLKEISQLIKQELQEGKALALSHTYANVRINHVINLWGADFDSEGNLKAIYVTDSDSNASIGMKKYFVGVNSSGKVAISAKEIEEDNIGAQVLGLFTLSTGQDIWEQTN :: 52
PRT-308 (protein) MQITSVWTKGVTPLTPEQFRENNEDVIHAPYLAHQGWYDITKAFDGKDNLLCGAATAGNMLHWWFDQNKTEIEAYLSKHPEKQKIIFNNQELFDLKAAIDTKDSQTNSQLFNYFRDKAFPNLSARQLGVMPDLVLDMFINGYYLNVGKTQSTDVNRPYQDKDKRGGIFDAVFTRGDQTTLLTARHDLKNKGLNDISTIIKQELTEGRALALSHTYANVSISHVINLWGADFDAEGNLEAIYVTDSDANASIGMKKYFVGRNAHGHVAISAKKIEGENIGAQVLGLFTLSLGKDIWQKLS :: 204
PRT-323 (protein) MTITSVWTKGVTPPTPEDFRENNEDVLHAPYVANQGWYDITKTFDGKDNLLCGAATAGNMLHWWFDQNKEEIERYLKKHPEKQKIIFNNQEWFDVKAAIDTKDSQTNSKLFNYFRDKAFPNLSARQLGVMPDLVLDMFINGYYLNLPKTQSTDVNRPYQDKDKRGGIFDAVFTRGDQTTLLTARHDLKNKGLNEISDLIKQELTEGKALALSHTYANVRINHVINLWGADFDAEGNLIAIYVTDSDANASIGMKKYAVGVNANGKVAISAKKIEGDNIGAQVLGLFTLSTGQDIWQKLS :: 256

Here is the next item to consider.
Task: # get_value(readout='Enzyme Activity Endpoint Assay: Fc', item= PRT-448 (protein) MVTSVWTKGVTPPTDFIKGEDVFHAPYKAGQGWYDITKTFNGKDDLLCGAATAGNMLHWWFDQNKDQIEAYLKEHPEKQKINFNGEQMFDVKEAIDTKDDQTNSKLFEYFKEKAFPYLSTKHLGVFPDHVLDMFINGYRLSLTNHGPTPVKEGSKDPRGGIFDAVFTRGDQSKLLTSRHDLKNKTLKEISDLIKQELTEGKALALSHTYANVRINHVINLWGADFDSNGNLEAIYVTDSDSNASIGMKKYFVGVNSAGKVAISAKEIEDDNIGAQVLGLFTLSTGQDIWNQTNLEHHHHHH )
Result: 0
